System: eIF2α in HEK293-EGFP-eIF2α cells
Test: PERK Cellular Assay (HEK293-EGFP-eIF2α cells, tunicamycin-induced ER stress, TR-FRET)
Assay type: cell-based
Details: tunicamycin 2 hours
pIC50: −log10 of the molar value.
As shown below, each of these compounds has a reported pIC50 value.

In the examples that follow, each entry is paired with its recorded pIC50.
INSERT INTO measurements (compound, tgt, result) VALUES
  ('[2H]C([2H])([2H])c1nc(-c2ccc(NC(=O)C(O)c3cccc(C(F)(F)F)c3)nc2C)c2c(N)ncc(C)n12 (centres unmarked) [Example 174]', 'eIF2α in HEK293-EGFP-eIF2α cells', '7.30 to 7.59'),
  ('[2H]C([2H])([2H])c1nc(-c2ccc(NC(=O)C(O)c3cccc(F)c3)cc2C)c2c(N)ncc(Cl)n12 (centres unmarked) [Example 33]', 'eIF2α in HEK293-EGFP-eIF2α cells', '7.00 to 7.29'),
  ('[2H]C([2H])([2H])c1nc(-c2ccc(NC(=O)C(O)c3cccc(C(F)(F)F)c3)c(F)c2F)c2c(N)ncc(Cl)n12 (centres unmarked) [Example 153]', 'eIF2α in HEK293-EGFP-eIF2α cells', '6.60 to 7.00');

Value (pIC50, eIF2α in HEK293-EGFP-eIF2α cells) for record CCc1cc(NC(=O)C(O)c2cccc(F)c2)ccc1-c1nc(C)n2c(C)cnc(N)c12 (centres unmarked) [Example 67] = 6.60 to 7.00

Value (pIC50, eIF2α in HEK293-EGFP-eIF2α cells) for record [2H]C([2H])([2H])c1nc(-c2ccc(NC(=O)C(O)c3cccc(C(F)(F)F)c3)c(F)c2F)c2c(N)ncc(C(F)(F)F)n12 (centres unmarked) [Example 149] = 6.30 to 6.60
